Cited source: PubChem BioAssay (Tox21)

assay_remarks: A CellTox Green Cytotoxicity Assay to monitor cytotoxicity in HepG2 cells - 8 hour (AID 1224890); further: nearly all actives have a fitted effect of over 45% in size
condition_context: CellTox Green fluorescence; series mostly up to 76.8 µM
Results filed as inconclusive are left out. Calls of active or inactive are those of the source. The call rests on the fitted dose curve; in most records, active means well fitted activation curve with a large enough effect in the repeat runs; inconclusive means weak or mixed curves; inactive means flat fitted curve, though single readings scatter.
Output constraint: value belongs to 1 = active, 0 = inactive

# count of solved cases: 10
Input line: Can you look up the reported call for CN1CCCCC1CCN1c2ccccc2Sc2ccc(S(C)=O)cc21 (configuration not stated) for me?
Output line: 0

Input line: Can you look up the reported call for "COc1cccc2c1C(=O)c1c(O)c3c(c(O)c1C2=O)C[C@@](O)(C(C)=O)C[C@@H]3O[C@H]1C[C@H](N)[C@H](O)[C@H](C)O1" for me?
Output line: 1

Input line: Can you look up the reported call for CC(C)(c1cc(Br)c(OCC(Br)CBr)c(Br)c1)c1cc(Br)c(OCC(Br)CBr)c(Br)c1 (configuration not stated) for me?
Output line: 0

Input line: Can you look up the reported call for C=CCCC(=O)/C=C/C1C(C)=CCCC1(C)C (configuration not stated) for me?
Output line: 0

Input line: Can you look up the reported call for "CN(C)Cc1cc(C(C)(C)C)c(O)c(C(C)(C)C)c1" for me?
Output line: 0

Input line: Can you look up the reported call for "Nc1nc2c(ncn2COCCO)c(=O)[nH]1" for me?
Output line: 0

Input line: Can you look up the reported call for "COc1cc(/C=C/c2ccccc2)oc(=O)c1" for me?
Output line: 0

Input line: Can you look up the reported call for "Clc1ccnc(Cl)n1" for me?
Output line: 0

Input line: Can you look up the reported call for "C1CCC(SSC2CCCCC2)CC1" for me?
Output line: 0

Input line: Can you look up the reported call for "CC(C)(C)NSc1nc2ccccc2s1" for me?
Output line: 0

New cases:
Input line: Can you look up the reported call for "CCCCOC(=O)CO" for me?
Output line: 0

Input line: Can you look up the reported call for "Cc1cc(C(C)(C)C)cc(C)c1CC1=NCCN1" for me?
Output line: 0

###

experimental_target: Estrogen receptor (Homo sapiens) (UniProt P03372)
Sequence (P03372 whole entry, looked up): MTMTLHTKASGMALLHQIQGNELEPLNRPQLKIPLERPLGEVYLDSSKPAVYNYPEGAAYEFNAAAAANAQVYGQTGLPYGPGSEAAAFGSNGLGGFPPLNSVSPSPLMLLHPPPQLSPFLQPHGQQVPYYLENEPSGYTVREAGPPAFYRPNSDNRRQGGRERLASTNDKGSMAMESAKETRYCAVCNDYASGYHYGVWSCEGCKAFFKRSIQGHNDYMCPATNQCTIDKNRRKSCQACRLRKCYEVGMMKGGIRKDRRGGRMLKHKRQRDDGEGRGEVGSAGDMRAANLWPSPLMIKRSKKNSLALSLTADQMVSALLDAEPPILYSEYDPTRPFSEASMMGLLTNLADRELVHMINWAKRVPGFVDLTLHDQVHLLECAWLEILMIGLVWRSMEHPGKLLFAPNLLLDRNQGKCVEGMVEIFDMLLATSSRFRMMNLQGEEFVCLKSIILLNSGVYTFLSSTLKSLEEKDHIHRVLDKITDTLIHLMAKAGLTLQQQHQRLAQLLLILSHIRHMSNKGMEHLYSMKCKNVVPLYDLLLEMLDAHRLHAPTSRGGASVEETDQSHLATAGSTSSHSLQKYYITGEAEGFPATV
assay_remarks: qHTS assay to identify small molecule agonists of the estrogen receptor alpha (ER-alpha) signaling pathway (AID 743075);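 further: HEK293 GripTite cells with ER-alpha and UAS-driven beta-lactamase reporter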
condition_context: HEK293 ER-alpha-UAS-bla, beta-lactamase FRET ratio, 18 h; series mostly up to 70.1 µM
Results filed as inconclusive are left out. The source made the active and inactive calls. The call rests on the fitted dose curve.
endpoint_label: outcome

Input line: So what outcome did "O=C(/C=C/c1ccccc1)OC/C=C/c1ccccc1" get with Estrogen receptor (Homo sapiens) (UniProt P03372)?
Output line: inactive

Input line: So what outcome did "O=C(Nc1ccc2c(O)c(N=Nc3ccc(N=Nc4ccc(S(=O)(=O)O)cc4)cc3)c(S(=O)(=O)O)cc2c1)c1ccccc1" get with Estrogen receptor (Homo sapiens) (UniProt P03372)?
Output line: inactive

Input line: So what outcome did "CC1=Nc2ccccc2C1(C)C" get with Estrogen receptor (Homo sapiens) (UniProt P03372)?
Output line: inactive

Input line: So what outcome did "Cc1cccc(C(=O)O)c1O" get with Estrogen receptor (Homo sapiens) (UniProt P03372)?
Output line: inactive

Input line: So what outcome did CC(C(=O)O)c1ccc2c(c1)[nH]c1ccc(Cl)cc12 (stereo unspecified) get with Estrogen receptor (Homo sapiens) (UniProt P03372)?
Output line: inactive

Turning to the following compound.
Input line: So what outcome did "COC1=C(OC)C(=O)C(CCCCCCCCCCO)=C(C)C1=O" get with Estrogen receptor (Homo sapiens) (UniProt P03372)?
Output line: inactive
